# Tgt: human SGLT2 (Homo sapiens, UniProt P31639, I433V)
# Sequence (P31639 whole entry I433V): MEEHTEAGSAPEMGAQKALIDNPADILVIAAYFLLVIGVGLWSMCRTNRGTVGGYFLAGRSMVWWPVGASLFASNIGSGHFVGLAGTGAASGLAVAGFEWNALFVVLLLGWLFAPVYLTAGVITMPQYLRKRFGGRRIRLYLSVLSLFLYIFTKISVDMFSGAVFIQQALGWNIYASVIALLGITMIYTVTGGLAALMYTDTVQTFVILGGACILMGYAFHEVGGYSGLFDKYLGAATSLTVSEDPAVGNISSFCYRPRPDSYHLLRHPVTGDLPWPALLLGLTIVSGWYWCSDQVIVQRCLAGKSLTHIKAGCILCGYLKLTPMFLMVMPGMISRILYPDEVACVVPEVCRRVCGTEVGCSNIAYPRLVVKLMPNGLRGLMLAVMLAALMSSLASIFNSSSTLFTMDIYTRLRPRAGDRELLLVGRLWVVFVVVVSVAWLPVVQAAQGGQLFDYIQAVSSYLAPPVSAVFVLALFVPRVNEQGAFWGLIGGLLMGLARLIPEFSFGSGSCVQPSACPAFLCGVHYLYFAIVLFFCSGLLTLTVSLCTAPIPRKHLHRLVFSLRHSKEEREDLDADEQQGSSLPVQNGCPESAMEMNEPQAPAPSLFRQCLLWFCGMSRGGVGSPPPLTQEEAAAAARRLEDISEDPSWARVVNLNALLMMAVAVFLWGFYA
# Experiment notes: Assay for inhibitory effect on human SGLT2 activity (uptake of methyl-α-D-glucopyranoside in COS-7 cells transiently expressing human SGLT2)
# Run parameters: methyl-α-D-(U-14C)glucopyranoside uptake, 37° C., 2 hours
Recorded metric: IC50

Prompt: Give the measured IC50 of OCC=Cc1ccc(Cc2ccccc2OC2OC(CO)C(O)C(O)C2O)cc1 (stereo not shown) [Reference Example 49] .
Completion: 120 nM

src = patent US7541341B2
